# measurementTarget: T1, human SIRPα v6-Fc (SIRPα6 extracellular domain fused to human IGHG1_Fc) (human, UniProt P78324 31-373; P0DOX5 223-449 = IgG part)
# T1 construct: as m38; also called V6 (e.g. SIRPα6)
# methodSummary: BLI Octet, antigen-Fc on biosensor;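 further: antigen captured on the biosensor tip and then immersed in solutions of the test antibodies, which act as the analyte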
Listing of entries alongside the reported kon.
Quick reminder: number only, in M⁻¹ s⁻¹, skip the unit.

Consider the worked cases shown below.
[[record]]
binder = "SIRPAB-10 (antibody, human IgG1, kappa, V domains shown) VH: QVQLVQSGAEVKKPGASVKVSCKASGYTFTGYPISWVRQAPGQGLEWMGWIYAYGGNTNYAQKLQGRVTMTTDTSTSTAYMELRSLRSDDTAVYYCAREAGSSWYDFDLWGRGTLVTVSS VL: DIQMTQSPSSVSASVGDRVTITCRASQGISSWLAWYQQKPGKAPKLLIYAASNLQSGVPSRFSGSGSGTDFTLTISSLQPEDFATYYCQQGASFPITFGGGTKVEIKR"
resultvalue = "1.28e+06"

[[record]]
binder = "SIRPAB-9 (antibody, human IgG1, kappa, V domains shown) VH: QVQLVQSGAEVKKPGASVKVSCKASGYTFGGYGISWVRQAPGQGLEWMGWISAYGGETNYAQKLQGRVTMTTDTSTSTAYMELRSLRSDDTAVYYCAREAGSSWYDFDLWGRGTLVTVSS VL: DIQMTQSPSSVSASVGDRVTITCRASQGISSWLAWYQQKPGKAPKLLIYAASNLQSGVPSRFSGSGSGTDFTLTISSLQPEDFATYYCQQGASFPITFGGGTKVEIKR"
resultvalue = "1.17e+06"

[[record]]
binder = "SIRPAB-13 (antibody, human IgG1, kappa, V domains shown) VH: QVQLVQSGAEVKKPGASVKVSCKASGYTFHGYGISWVRQAPGQGLEWMGWISAYSGETNYAQKLQGRVTMTTDTSTSTAYMELRSLRSDDTAVYYCAREAGSSWYDFDLWGRGTLVTVSS VL: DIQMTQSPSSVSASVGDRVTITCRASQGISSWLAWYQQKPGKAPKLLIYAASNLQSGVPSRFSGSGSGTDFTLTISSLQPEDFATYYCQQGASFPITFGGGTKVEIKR"
resultvalue = "1.35e+06"


For the next question, use this binder.
Data request: State its kon: SIRPAB-7 (antibody, human IgG1, kappa, V domains shown) VH: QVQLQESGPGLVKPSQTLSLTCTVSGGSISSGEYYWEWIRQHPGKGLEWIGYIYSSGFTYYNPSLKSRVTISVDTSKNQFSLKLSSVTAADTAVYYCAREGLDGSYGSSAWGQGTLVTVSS VL: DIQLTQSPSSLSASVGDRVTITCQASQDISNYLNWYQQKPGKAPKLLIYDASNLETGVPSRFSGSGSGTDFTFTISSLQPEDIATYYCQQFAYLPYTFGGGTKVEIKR
Data returned: 907000
